Data origin: patent US5627143A

ASSAY PROTOCOL: Pour point of base oils
Type: physicochemical
Description: Some properties of alk-1-enes of carbon number between 12 and 20 are shown in Table 1 (which appears at the end of this description) and compared with an ester oil, a linear alkyl benzene, and a polyalphaolefin.
# Pour Point values compiled below
Write the number in °C without appending the unit.

[[record]]
compound_string = "C=CCCCCCCCCCCCC"
unit_name = "°C"
measured_value = -13


query: Report measured Pour Point; entry is C=CCCCCCCCCCC
result: -35
